# Tested on: HCC-2998 colon
# test_protocol: NCI-60 one-dose screen, 48 h (100 = growth as untreated, 0 = no growth, -100 = all killed)
# condition_set: 10 µM unless noted
The panel holds about 83,000 compounds, 20% with a hit somewhere; the sample as a whole holds those more often. The source made the active and inactive calls. Rule for the calls: active = growth percent below 10; inactive = the rest.
measurement_name: growth

* COC(=O)C(Sc1ccc(Cl)cc1)C1SC(=S)N(Cc2ccccc2)C1=O (stereo not given) | 103% (inactive)
* COP(=O)(OC)/C(=N\NS(=O)(=O)c1ccc(C)cc1)c1ccccc1 | 102% (inactive)
* Cc1ccc(-c2nc(C(Cl)Cl)n3nc(-c4ccccc4)cc3n2)cc1 | 23.3% (inactive)
* Cc1[nH]c2ccc(F)cc2c1CCNC(=O)C1CCN(C(=O)c2ccccc2)CC1 | 104% [25 µM] (inactive)

Please examine the following record next.
Query string: Lab note: need growth with HCC-2998 colon for entry Cc1ccc(S(=O)(=O)C2=C3C(=C(c4ccccc4)c4ccccc43)CN(S(=O)(=O)c3ccc(C)cc3)C2)cc1 , please look it up.
Result string: 88.9% (inactive)

* * *

Can you tell me growth for the items I'm about to list?
# Test system: RPMI-8226 leukemia
# test_protocol: NCI-60 one-dose screen, 48 h (100 = growth as untreated, 0 = no growth, -100 = all killed)
# condition_set: 10 µM unless noted
# Experimental: Growth inhibition of the RPMI-8226 human tumor cell line is measured as a screen for anti-cancer activity. Cells are grown in 96 well plates and exposed to the test compound for 48 hours. Compounds are tested at a single concentration, which is 10^-5 M for most compounds. The reported endpoint is percent growth (GI% or GIPRCNT), where numbers from 0 - 100% represent growth inhibition, and numbers from -100% - 0 represent cell death. For example, a value of 40 represents 60% growth inhibition. […]
About 83,000 compounds went through this panel and 20% of them were active in at least one assay; those are over-represented in the sample as a whole.
One number for each entry, in %.

// known answers, use as guide
- COc1ccc(NC(=O)c2cc(OC)c(OC)c(OC)c2)cc1O: 51.8
- OC(c1cc2cc(Br)ccc2c2cc(Br)ccc12)C1CCCCN1 (stereo unspecified): -38.9
- COc1cc(C(=O)/C=C/c2ccc3nc(-c4cc(F)cc(F)c4)sc3c2)cc(OC)c1OC: 90.7
- Cc1cc(C2=NNC(=O)Cc3cc4c(cc32)OCCO4)cc(C)c1N: 52.8
- COc1cc(-c2ncn(/C=C\C(=O)OC(C)C)n2)cc(C(F)(F)F)c1: 67.5
- COc1ccc(C2=Nn3c(nnc3-n3nc(C)cc3C)SC2)cc1: 20.9
- COc1ccncc1S(=O)(=O)NC(=O)Nc1ccc(Cl)c(Cl)c1: 46.2
- O=C(C1=Cc2cc3ccccc3n2Cc2cnnn21)c1ccccc1: 53.1

Batch lookup, growth per entry.
1. CC(O)CN1CCCCC1 (stereo unspecified)
2. COc1ccc(NC(=O)CSc2nc(-c3ccc(OC)c(OC)c3)cc(-c3cc(OC)c(OC)c(OC)c3)n2)cc1
3. CC1(c2ccc(Cl)cc2)OC(=O)CC(=O)O1

Result string:
113
78.2
102

* * *

# Test system: HOP-92 NSCLC
# test_protocol: NCI-60 one-dose screen, 48 h
# condition_set: 10 µM unless noted
# Method: Growth inhibition of the HOP-92 human Non-Small Cell Lung tumor cell line is measured as a screen for anti-cancer activity. Cells are grown in 96 well plates and exposed to the test compound for 48 hours. Compounds are tested at a single concentration, which is 10^-5 M for most compounds. The reported endpoint is percent growth (GI% or GIPRCNT), where numbers from 0 - 100% represent growth inhibition, and numbers from -100% - 0 represent cell death. […]
The panel holds about 83,000 compounds, 20% with a hit somewhere; the sample as a whole holds those more often. Activity calls are given as the source filed them. How the source made its calls: active means growth percent below 10; inactive means the rest.
Log the outcome using a class from active, inactive

Answered cases to consult:
* CCCCCCN1CSC(=S)N(CCCCCC)C1 | inactive
* C=COC(=O)CCCCCCCCC | inactive
* COc1ccc(Nc2nn3c(C)cc(C)nc3c2C(=O)Nc2ccc(C)cc2)c(OC)c1 | inactive

Query string: Hi, do you know how CN(C[C@H]1Cc2c(cccc2N2CCN(c3ncccn3)CC2)CN1)[C@H]1CCCc2cccnc21 came out in this test?
Result string: inactive

* * *

# System: HT29 colon
# test_protocol: NCI-60 one-dose screen, 48 h
# condition_set: 10 µM unless noted
The panel holds about 83,000 compounds, 20% with a hit somewhere; the sample as a whole holds those more often. Activity calls are given as the source filed them. The calls were made as follows: active = growth percent below 10; inactive = the rest.
Log the outcome using a class from active, inactive

Answered cases to consult:
• O=C(CSc1nc2ccccc2[nH]1)Nc1ccc(-c2nc3ccccc3s2)c(Cl)c1 = inactive
• O=C(O)c1cn(C2CC2)c2cc(N3CCN(C(=O)/C=C/c4ccc(Cl)cc4)CC3)c(F)cc2c1=O = inactive
• CN1CCN(Cc2ccc(NC(=O)c3nc4ccc5[nH]ncc5c4c4c3CCC4)cc2C(F)(F)F)CC1 = active
• Cc1cc(C)n(-c2nnc3n2N=C(c2ccc(-c4ccccc4)cc2)CS3)n1 = active
• Cc1nn(-c2ccc([N+](=O)[O-])cc2)c2ncnc(NCCc3ccccc3)c12 = inactive

Query string: Hi, do you know how CC12CCC3C4(C)COC(c5ccco5)OC4CCC3(C)C1CC(C1=CCOC1=O)O2 (centres undefined) came out in this test?
Result string: inactive

Query string: Cool, now COc1cc2c(=O)n(C3CCCCCC3)c3c4cc[nH]c4ncc3c2cc1OC
Result string: inactive

Query string: Cool, now O=[N+]([O-])c1cccc(-c2nc3sccn3c2-c2ccnc(NCCCNS(=O)(=O)c3ccc(Cl)cc3)n2)c1
Result string: inactive

Query string: Cool, now CC(C)(C)n1cc(-c2ccnc(NCCCNS(=O)(=O)c3ccc(Cl)cc3)c2)c(-c2cccc(O)c2)n1
Result string: active

* * *

Can you tell me growth for the items I'm about to list?
# System: NCI/ADR-RES ovarian
# test_protocol: NCI-60 one-dose screen, 48 h (100 = growth as untreated, 0 = no growth, -100 = all killed)
# condition_set: 10 µM unless noted
About 83,000 compounds went through this panel and 20% of them were active in at least one assay; those are over-represented in the sample as a whole.
Numbers only, in %.

// known answers, use as guide
- O=S(=O)(NCCNc1nccc(-c2c(-c3ccc(O)cc3)nc3sccn23)n1)c1cccc2ccccc12: 102
- Cc1ccc(S(=O)(=O)NC(=O)n2cc(-c3ccncc3)c(-c3ccc(Cl)c(O)c3)n2)cc1: 104
- Nc1nc(-c2ccccc2)c(CCCOc2ccc(NC(=O)CBr)cc2)c(=O)[nH]1: 106
- Cc1ccc(S(=O)(=O)n2cc(C(=O)C(=O)N3CCOCC3)c3ccccc32)cc1: 75.1
- COc1ccc(Nc2[nH]n3c(=O)cc(C)nc3c2C(N)=O)c(OC)c1: 103
- Cc1c(C(=O)/C=C/c2csc3ccccc23)[n+](=O)c2ccccc2n1[O-]: 22.5

Batch lookup, growth per entry.
1. NNc1cccc(/C=C/c2ccccc2)cc1=O
2. O=C(/C=C/c1cc(-c2ccc3c(c2)OCO3)n[nH]1)c1ccc2c(c1)OCO2
3. O=C(NS(=O)(=O)c1ccccc1)n1cc(-c2ccncc2)c(-c2ccc(Cl)c(O)c2)n1
4. CCC(=O)Oc1ccc(/C(=C(/C)Cc2cccc(OC)c2)c2ccc(OCCN(C)C)cc2)cc1

Result string:
59.6
102
102
100

* * *

# System: SW-620 colon
# test_protocol: NCI-60 one-dose screen, 48 h (100 = growth as untreated, 0 = no growth, -100 = all killed)
# condition_set: 10 µM unless noted
Compounds without any hit were thinned out: in the full panel of roughly 83,000, 20% have a hit.
measurement_name: growth (%)
Numbers only, in %.

// known answers, use as guide
- C[n+]1c(/C=C/c2c(O)ccc3ccccc23)ccc2ccccc21: 17
- COc1ccc(S(=O)(=O)Nc2cc(/C=C\c3cc(OC)c(OC)c(OC)c3)cc(OC)c2OC)cc1: 26.4
- COc1ccc(-n2c(=O)sc3c(Cl)nc(C)nc32)c(OC)c1: 74.8

Batch lookup, growth per entry.
1. COc1ccc2c(c1)OC1=C(C(=O)OC1)C2c1cc(OC)c2c(c1)OCO2 (stereo unspecified)
2. CCN(CC)CCC(CNc1c2ccc(Cl)cc2nc2ccc(OC)cc12)c1ccccc1 (stereo unspecified)
3. C=CCSc1n[nH]c(-c2cccs2)n1
4. CN(C)CCN1C(=O)c2ccc3c4c(ccc(c24)C1=O)C(=O)N(CCN=C=S)C3=O
5. COc1cc(C(=O)/C=C/c2ccc3nc(-c4cc(F)cc(F)c4)sc3c2)cc(OC)c1OC
6. CC(C)CSc1nc(NN)c(C#N)c(-c2ccc(F)cc2)n1
7. CCN(CC)CCOc1ccc(/C(=C(/C)c2ccccc2)c2ccc(OC(C)=O)cc2)cc1

Result string:
1: 18.7; 2: -49.7; 3: 102; 4: -68.1; 5: 104; 6: 91.9; 7: 95.5

Batch lookup, growth per entry.
1. COc1cc(C2C3=C(COC3=O)Nc3cc4c(cc32)CCC4)cc2c1OCO2 (stereo unspecified)
2. ClC(Cl)c1nc(-c2ccccc2)nc2cc(-c3ccccc3)nn12
3. O=C(O)COc1ccc(-c2cssc2=S)cc1
4. C=C1C(=O)O[C@H]2[C@H]1CC/C(Cn1cc(-c3cccc(Cl)c3)nn1)=C\CC[C@@]1(C)O[C@@H]21

Result string:
1. 25.4
2. 14.8
3. 107
4. -77.8

Batch lookup, growth per entry.
1. c1cc(C2=N[C@@H]3c4ccccc4C[C@@H]3O2)nc(C2=N[C@@H]3c4ccccc4C[C@@H]3O2)c1
2. O=C(/C=C\c1cccc([N+](=O)[O-])c1)/C=C/c1cccc([N+](=O)[O-])c1
3. O=C(/C=C/c1ccccc1)c1cccc(O)c1
4. C=C1C(=O)O[C@@H]2[C@@H]3O[C@@](C)(CC/C=C(\C)CCC[C@@H]2C)[C@H](O)C[C@@H]13
5. NNc1cccc(/C=C/c2ccccc2)cc1=O
6. Oc1ccccc1/C=N/NC(=S)NC1CC2C=CC1C2 (stereo unspecified)

Result string:
107
18.9
65.4
33.5
54.7
45.5

Query string: Record request: growth value, item O=c1cc(Cc2ccc([N+](=O)[O-])cc2)[nH]c(=O)[nH]1
Result string: 103
